Property: selectivity ratio; scope: individual molecules
Test: Safety ratio is cytotoxicity to vero cells/IC50 K1.
Assay type: toxicity, cell-based
Details: monkey, read-out: Safety ratio
Give the figure only, with no unit attached.

Incoming: Entry COc1cc(Cc2cnc(N)nc2N)ccc1OCCCc1ccccc1 has what selectivity ratio?
Outgoing: 17

Incoming: Can you check CCc1nc(N)nc(N)c1-c1cccc(Cl)c1 next?
Outgoing: 5.4

Incoming: Try this molecule too: CCCCCCc1nc(N)nc(N)c1-c1ccccc1
Outgoing: 41

Incoming: Can you handle CCc1nc(N)nc(N)c1-c1ccccc1 next?
Outgoing: 96

Attention now turns to another entry.
Incoming: What value of selectivity ratio has been reported for the following molecule? Nc1nc(N)c(-c2cccc(Cl)c2)c(CCOCCCOc2ccccc2)n1
Outgoing: 4.5

---

Assay: Safety ratio is cytotoxicity to KB cells/IC50 TM4.
Format: toxicity, cell-based
Settings: human, KB cells (epidermoid carcinoma); read-out: Safety ratio
experimentalReadout: selectivity ratio
A bare number is all that is needed in reply.

Incoming: Return reported selectivity ratio; argument: COc1cc(Cc2cnc(N)nc2N)ccc1OCCCc1ccccc1
Outgoing: 24

Incoming: Now the same for CCCCCCc1nc(N)nc(N)c1-c1ccccc1
Outgoing: 1880

Incoming: Item: CCc1nc(N)nc(N)c1-c1cccc(Cl)c1
Outgoing: 115

Incoming: Could you do the same for Nc1nc(N)c(-c2cccc(Cl)c2)c(CCOCCCOc2ccccc2)n1 , please?
Outgoing: 20

Turning to the following compound.
Incoming: Reported selectivity ratio for CCc1nc(N)nc(N)c1-c1ccc(C(C)(C)C)cc1 : what is it?
Outgoing: 145

---

In this section we review reported selectivity ratio values for a set of compounds.
Experiment: Safety ratio is cytotoxicity to BC cells/IC50 K1
Format: toxicity, cell-based
Details: human, BC cells (breast cancer); read-out: Safety ratio

Incoming: Report selectivity ratio for COc1cc(Cc2cnc(N)nc2N)ccc1OCCCc1ccccc1 please.
Outgoing: 2.7

Incoming: Then this compound: Nc1nc(N)c(-c2cccc(Cl)c2)c(CCOCCCOc2ccccc2)n1
Outgoing: 1.8

---

Target: Bifunctional dihydrofolate reductase-thymidylate synthase (Plasmodium falciparum K1) (UniProt P13922)
Sequence (P13922 whole entry, looked up): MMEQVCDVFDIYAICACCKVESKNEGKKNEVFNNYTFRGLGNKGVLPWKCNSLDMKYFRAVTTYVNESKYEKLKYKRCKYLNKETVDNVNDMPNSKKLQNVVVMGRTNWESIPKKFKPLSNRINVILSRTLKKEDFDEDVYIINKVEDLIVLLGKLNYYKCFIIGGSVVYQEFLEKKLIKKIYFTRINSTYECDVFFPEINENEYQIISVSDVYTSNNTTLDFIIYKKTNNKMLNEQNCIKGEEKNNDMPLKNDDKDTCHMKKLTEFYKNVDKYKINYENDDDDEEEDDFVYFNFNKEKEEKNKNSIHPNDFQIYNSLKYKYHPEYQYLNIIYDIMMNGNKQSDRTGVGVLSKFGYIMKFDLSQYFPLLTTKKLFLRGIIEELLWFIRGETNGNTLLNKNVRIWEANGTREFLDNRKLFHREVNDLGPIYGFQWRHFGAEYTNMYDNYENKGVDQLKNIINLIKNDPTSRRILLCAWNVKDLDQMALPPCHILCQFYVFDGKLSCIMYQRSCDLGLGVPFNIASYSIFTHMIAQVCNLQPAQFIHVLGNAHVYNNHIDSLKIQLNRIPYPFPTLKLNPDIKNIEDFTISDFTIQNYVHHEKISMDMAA
Assay: Inhibition of the S108N mutant of dihydrofolate reductase (DHFR) relative to Pyr.
experimentalReadout: Relative activity
# print the numeric value only

# example entries with known answers
Incoming: Bench note: what Relative activity did CCc1nc(N)nc(N)c1-c1ccc(C(C)(C)C)cc1 show?
Outgoing: 2.3

Incoming: Try the compound CCc1nc(N)nc(N)c1-c1ccccc1
Outgoing: 0.2

Incoming: What about this compound? CCc1nc(N)nc(N)c1-c1ccc(C)cc1
Outgoing: 0.4

New cases:
Incoming: What Relative activity value was documented for this compound, CCc1nc(N)nc(N)c1-c1ccc(OC)cc1 ?
Outgoing: 1.4

Incoming: Moving on to CCc1nc(N)nc(N)c1-c1ccc(-c2ccccc2)cc1
Outgoing: 14.7

---

Target: Bifunctional dihydrofolate reductase-thymidylate synthase (Plasmodium falciparum K1) (UniProt P13922)
Test: Inhibition of mutant C59R+S108N dihydrofolate reductase (DHFR) relative to Pyr
experimentalReadout: Relative activity
Write the value as a bare number.

Incoming: Which Relative activity reading was recorded for the compound COC(=O)CCCc1nc(N)nc(N)c1-c1ccc(Cl)cc1 ?
Outgoing: 0.5

Further cases:
Incoming: Entry Cc1nc(N)nc(N)c1-c1ccc(Cl)cc1 : reported Relative activity = ?
Outgoing: 2.6

Incoming: Would you mind doing CCc1nc(N)nc(N)c1-c1ccc2c(c1)OCO2 as well?
Outgoing: 0.6

Incoming: How about this compound: COC(=O)CCCc1nc(N)nc(N)c1-c1ccccc1
Outgoing: 0.1

Provenance of the data: ChEMBL document CHEMBL1135602
